Test system: pain induced by the intraperitoneal injection of acetic acid
protocol details: Analgesic activity, Koster's test on mice (acetic acid writhing)
Type: in vivo, male mice
test parameters: Mus musculus, po, 400 mg/kg per os
Please mark criterion met if the recorded inhibition in vivo at 400 mg/kg is equal to or greater than 50%, and criterion not met if it falls below.

Examples from the recorded data:
CC1Oc2cc(Br)c(Cl)cc2N(CC(O)CO)C1=O (centres unmarked) ... criterion met
Cc1ccc2c(c1)N(CC(O)CO)C(=O)C(C)O2 (centres unmarked) ... criterion met
CC(=O)OCC(CN1C(=O)C(C)Oc2ccc(Cl)cc21)OC(C)=O (centres unmarked) ... criterion not met

Is reported inhibition in vivo at 400 mg/kg greater than or equal to 50% here: CCCc1cc(OC)c2c(c1)N(CC(O)CO)C(=O)C(C)O2 (centres unmarked)
criterion not met
